Reference source for all entries: ChEMBL document CHEMBL1933031

# assayTarget: Epidermal growth factor receptor (Homo sapiens)
# testContext: at 10 µM
# Description: Inhibition of EGFR at 10 uM
Classification field: enter satisfied for inhibition values not below 10%, not satisfied for values below it.

In [3]: df
Out[3]:
                                        mol          group
0  O=C(Oc1cccc(-c2nc(N3CCOCC3)c3cc4ncccc4n3n2)c1)c1ccco1      satisfied
1  CC(=O)Oc1cccc(-c2nc(N3CCOCC3)c3cc4ncccc4n3n2)c1  not satisfied
2  O=C(Oc1cccc(-c2nc(N3CCOCC3)c3cc4ncccc4n3n2)c1)c1ccncc1  not satisfied
3  Oc1cccc(-c2nc(N3CCOCC3)c3cc4ncccc4n3n2)c1      satisfied
4  CCCC(=O)Oc1cccc(-c2nc(N3CCOCC3)c3cc4ncccc4n3n2)c1      satisfied
